EXPERIMENTAL_SYSTEM: Ribosomal protein S6 kinase alpha-3 (Homo sapiens);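 further: reported value is a mean inhibition figure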
TEST_PARAMETERS: at 0.1 µM
ASSAY_ENDPOINT: inhibition (%)
Provide only the numeric value, understood in %.

Per the records, this compound ( NS(=O)(=O)c1ccc(Nc2cc(-c3ccc(O)c(F)c3)n[nH]2)cc1 ) has inhibition equal to 13.1

Please fill in: inhibition reported for O=C(Nc1ccc(Oc2ccc3[nH]c(NC(=O)c4ccccc4)nc3c2)cc1)Nc1cc(C(F)(F)F)ccc1F = 0.81

Documented inhibition of Clc1ccc(CNc2nccc(-c3cnn4ncccc34)n2)cc1 : 0.05

# inhibition of CNC(=O)c1cncc(/C=C/c2c(C)cccc2C)c1 = 0.6

// sample C[C@@H](Oc1cc(-n2cnc3ccc(OC4CCN(C)CC4)cc32)sc1C(N)=O)c1ccccc1Cl , its inhibition was 3.29

Entry under test: Cc1ccc(C(=O)NC2CCC2)cc1-c1ccc(C(=O)NCC2CC2)cc1 . Its inhibition was 0.97

# inhibition of CCS(=O)(=O)c1ccc(OC)c(Nc2ncc(-c3ccccc3Cl)o2)c1 = 0.57
